Assay: soluble on expression in E. coli; label from the status in PepcDB or PDB records
assay.endpoint: soluble on expression in E. coli

MKKPFSKLFGLKNKDDIIGHIEEDRNSNVESIQIERIVPNRYQPRQVFEPNKIKELAESIHEHGLLQPIVVRPIEEDMFEIIAGERRFRAIQSLNLPQADVIIRDMDDEETAVVALIENIQRENLSVVEEAEAYKKLLEIGDTTQSELAKSLGKSQSFIANKLRLLKLAPKVLLRLREGKITERHARAVLSLSDSEQEALIEQVIAQKLNVKQTEDRVRQKTGPEKVKAQNLRFAQDVTQARDEVGKSIQAIQQTGLHVEHKDKDHEDYYEIKIRIYKR    not soluble
MQEEVNQKTVALSIRTTKLTGKVLAAALGKVVRALQKHHRKALTPQGRQSVKKLMNHYGGKSAMPYVGAPKDFDRIAKEFHVDYAFHKVSPGHYLLFFKANQADAITAAFQKYSAKVLNKEQDKASILGQLRKFTEQIRTQAKEKQRTREAVKDGR    not soluble

====

Test: soluble on expression in E. coli; label from the status in PepcDB or PDB records
assay.endpoint: soluble on expression in E. coli

Solved entries (count: 10):
MVTHSKFPAAGMSRPLDTSLRLKTFSSKSEYQLVVNAVRKLQESGFYWSAVTGGEANLLLSAEPAGTFLIRDSSDQRHFFTLSVKTQSGTKNLRIQCEGGSFSLQSDPRSTQPVPRFDCVLKLVHHYMPPPGTPSFSLPPTEPSSEVPEQPPAQALPGSTPKRAYYIYSGGEKIPLVLSRPLSSNVATLQHLCRKTVNGHLDSYEKVTQLPGPIREFLDQYDAPL    soluble
VRWIGLSTGLVSAMLVAGLVACGSNSPASSPAGPTQGARSIVVFAAASLQSAFTQIGEQFKAGNPGVNVNFAFAGSSELATQLTQGATADVFASADTAQMDSVAKAGLLAGHPTNFATNTMVIVAAAGNPKKIRSFADLTRPGLNVVVCQPSVPCGSATRRIEDATGIHLNPVSEELSVTDVLNKVITGQADAGLVYVSDALSVATKVTCVRFPEAAGVVNVYAIAVLKRTSQPALARQFVAMVTAAAGRRILDQSGFAKP    not soluble
MGSDKIHHHHHHMAAPDTPPDSPPPISAVEMPSGKDAGTENFPVGSVLLPARLRPHVARFYAFARAIDDIADSPDLDAAAKIDRLQGFEEAITGRDTTDPAYAKGHALRVSLEATGVPAIHGVELIAAFKQDAVKGRYATWAEMMDYCRLSAAPVGRYLIDLHGGSRAGYASSDALCVALQVINHLQDCQDDFRVLDRVYLPADWLAAEGASVSDLDRAACTPGLRRVLDRCLEGTRRLLDAARPLPGDIIDRRLGLEAAVIVSIAQTLTGRLARQDPLAQRVKLGKAATAFCAARACAAYLMVPGAYR    not soluble
MDSAREVSDGRLTVEGFSVASRAFADKWKIHNQSFPPWSWVPLINRTLLVSKKEEGYLSLEKIIILSSLEEEIPEDESLNVATDCLEKEETVDHTILVPTMENEAHYYDFHIVYSASYKVPVLYFRGYCSGGEPLALDVIKKDVPSCSVSLLLESKWTFITQEEHPYLNRPWFKLHPCGTEDWIKLLSQSSSSSGCQMPIVLYLVSWFSVVGQVVGLRIPLEMLN    soluble
GNFGWSSYLTYSLNRNKVVELLRNYEDPYTHELTSLDRIDMGGTSMYKMILTEGGSIGDIYVNTLRTDEHGAIYVHPSDQVVVTQPDEFVKAGNSAPKYNLGWGNTFSYKGLSLGFLFTARVGGVVVSQTQATMDAYGSSKATAIARDNGGAIVNGRPIGAEDYYTKIGGAGAQGGIGSMYTYSATNVRLAELSLGYDIPINKYVDWIKGLNVSFIGKNLFFLYRKAPFDPELTASTGTYFQGIDMFMSPSLRNLGFSVKVNF    not soluble
MGSDKIHHHHHHMSTLIRSALLVKFSEIARTLSVDPERMIRHVGADRSCIVSPDLHVPEPWLANVLDASEQASSGAAVGLLMAESWRLSDFGPISLLLQHQPTLRHALGQLETYRHLLSESVLVHVEETDAVAIVRLQLITDRPTPGRQPVELSIGAMLCLMKSMLGGKWKPRSVHFTHGAPANLHVHRRLFGTNVEFGSDFDGIVLDRQDLDRPNPLGDVNLARYAREFLDQHPRGRRISTASNVRRSVHMLLPRGQGSIEQVGQQLGMSARTLQRRLGQEGQEFSSLVNEVRRGLASRYLADLRYPVSQVAMLVGFAEVSTFSRWFSSQFGMPPTRWRTGAEH    not soluble
MGSDKIHHHHHHMYQELPPLPWLRAFDASARLGNFTLAAQELGLTPSAVSYQVRGLEATLGHKLFVRKQKSLFLTRLGQAYLPVVSKAFGDLEATTSNLFGKSAAQEITLRCLSSLNMLWLAPRLSRFQAQHPDCRLRVLSALWGETPEALQIDIDIRYGNGSWSDGEVTRLMHHEVLAVCAPALHPGPDPQAIASCPLIEVIGVTDTWHHFFALHGLAPPSSGPALKVDQSLIALELATRGMGVALIARVFAQRYLESGALVEATDLALPAREGHYIVQPEARNHFRPEVAALKDWLLQEAAQTGC    not soluble
MISVFHYHQPKIGNSESEYEDAFSYDVEKGLFAMADGSSESVFSNEWARSLVDTFVAGKYDMKIDDMVETAVGMWRSKLPWNNMKWFVKNKIARGSMATFLGLEVLDGSFRSVAVGDTCLFIITPEGMKSFPVKYPSEFGNTPKLIWTGNPLLRTRRSIKWANYMEGRISESDLLIMATDSLAHWMLSRAKQRPWQILIDHSENEGEFIGSLINSGEMKNDDVTFAIISLK    not soluble
RYLLQRKASEALEVEVVDTWQADAVRDTRTLSGGESFLVSLALALALSDLVSHKTRIDSLFLDEGFGTLDSETLDTALDALDALNASGKTIGVISHVEAMKERIPVQIKVKKINGLGYSKLESAFAMK    not soluble
VRQLLGLEGPIKRVECFDISHTMGEATVASCVVFDAVGPVRSQYRRYNITGITPGDDYAAMRQAIERRFRRAVEEDKQGERPDVLFIDGGAGQLAQAKMALNAVGVESVLLVGVSKGEERRAGHETLIMLDGQELHPGAASPALQFIQQVRDEAHRFAI    not soluble

Give soluble on expression in E. coli for each listed item.
1. MGSDKIHHHHHHMKNLLSTREVAQFLGVNEKMVYTLISDKGLPATKVTGKWLFPAHLVEQWVENSTINFPRRHESAPPAEGVLLVAGSNDILFERTLRLFMDAQPDYIAAFANMGSMGGIKALRRGVCHMATSHLKQEDGAEYNFAHAERELEERPAVVNFCLREQGLLVPRGNPAGISCVADVAGGGLTVANRPLGTGTRLLFDSELAAAGINPARLKGYENEFSRHMDVGLEVLSGRADTAPAIRAVAGLLGLDFIPLGWERFDLLIPRDTFFERHIQLFMGLFTTPEFAALAGQLEGYDTSRAGRVVFPGETLRETRR
2. TSKKKRQRGSRTHGGGSHKNRRGAGHRGGRGDAGRDKHEFHNHEPLGKSGFKRPQKVQEEAATIDVREIDENVTLLAADDVAEVEDGGFRVDVRDVVEEADDADYVKVLGAGQVRHELTLIADDFSEGAREKVEGAGGSVELTDLGEERQAEAEETEDADADEE

Reply text:
["not soluble", "soluble"]

====

Test: soluble on expression in E. coli; label from the status in PepcDB or PDB records
assay.endpoint: soluble on expression in E. coli

MAHHHHHHNQQNKKVEGGYECKYCTFQTPDLNMFTFHVDSEHPNVVLNSSYVCVECNFLTKRYDALSEHNLKYHPGEENFKLTMVKRNNQTIFEQTINDLTF    soluble
MGHHHHHHSHMSCTIEKILTDAKTLLERLREHDAAAESLVDQSAALHRRVAAMREAGTALPDQYQEDASDMKDMSKYKPHILLSQENTQIRDLQQENRELWISLEEHQDALELIMSKYRKQMLQLMVAKKAVDAEPVLKAHQSHSAEIESQIDRICEMGEVMRKAVQVDDDQFCKIQEILAQLELENKELRELLSISSESHQARKENSMDTASQAIK    not soluble
MSLEHPLQRFFHSMRAKRPFDWVRFQRRDLLLIDHPLCQAVFSRQGAQLLHFQPQGERPLLWCAGEWPALSSAPVRGGIPVCWPWFGSHPNGSEWPQQGWARQREWRLLDAYADESKVVVSWQLDLEDWHVRLDARLGQRLELELCSYHEEDDDCLFSFALQPYWRVGALSRVVVHGMELESARGQRGASRIPGTWIPRGAVKQVLYHPGSLVLEDGGWNRRLRIDKNVSAGSVIWHPGSRPVEQVEPGEAERFLCIGAAGYRPGGLILAPGERMRLSLAAGLQEGHHHHHH    soluble
MGSDKIHHHHHHMEEARIKALISLLDDEDVEVISQVEKELLAQGGSMIPFLEKEWEENFNPIVQKRIEDLVHLLQFVLLEDRLSQWKNKGGTDLMEGLWLICTYQYPDLEFNTIKSAMEQIYYEVWLDMKPDMLPLEQVKLVMNNVLFNKLKFSANTKNFHSPANSMISQVLESKKGNPISLCCIYMMVAQKLKLPVYGVNLPTLFILTYKSDDTQFYISPFHKGLIFTKEDIDNYLLQLNLAPIDLYYQPCNNIDIVARVLRNLIVSFEKLSEMERVDDVKKMLHFLTGEKY    not soluble
